Source of measurements: patent US9994552B2

Could you please report measured IC50 for the items listed next?
Target: wild type Kit (Homo sapiens (Human))
Sequence (P10721 26-976): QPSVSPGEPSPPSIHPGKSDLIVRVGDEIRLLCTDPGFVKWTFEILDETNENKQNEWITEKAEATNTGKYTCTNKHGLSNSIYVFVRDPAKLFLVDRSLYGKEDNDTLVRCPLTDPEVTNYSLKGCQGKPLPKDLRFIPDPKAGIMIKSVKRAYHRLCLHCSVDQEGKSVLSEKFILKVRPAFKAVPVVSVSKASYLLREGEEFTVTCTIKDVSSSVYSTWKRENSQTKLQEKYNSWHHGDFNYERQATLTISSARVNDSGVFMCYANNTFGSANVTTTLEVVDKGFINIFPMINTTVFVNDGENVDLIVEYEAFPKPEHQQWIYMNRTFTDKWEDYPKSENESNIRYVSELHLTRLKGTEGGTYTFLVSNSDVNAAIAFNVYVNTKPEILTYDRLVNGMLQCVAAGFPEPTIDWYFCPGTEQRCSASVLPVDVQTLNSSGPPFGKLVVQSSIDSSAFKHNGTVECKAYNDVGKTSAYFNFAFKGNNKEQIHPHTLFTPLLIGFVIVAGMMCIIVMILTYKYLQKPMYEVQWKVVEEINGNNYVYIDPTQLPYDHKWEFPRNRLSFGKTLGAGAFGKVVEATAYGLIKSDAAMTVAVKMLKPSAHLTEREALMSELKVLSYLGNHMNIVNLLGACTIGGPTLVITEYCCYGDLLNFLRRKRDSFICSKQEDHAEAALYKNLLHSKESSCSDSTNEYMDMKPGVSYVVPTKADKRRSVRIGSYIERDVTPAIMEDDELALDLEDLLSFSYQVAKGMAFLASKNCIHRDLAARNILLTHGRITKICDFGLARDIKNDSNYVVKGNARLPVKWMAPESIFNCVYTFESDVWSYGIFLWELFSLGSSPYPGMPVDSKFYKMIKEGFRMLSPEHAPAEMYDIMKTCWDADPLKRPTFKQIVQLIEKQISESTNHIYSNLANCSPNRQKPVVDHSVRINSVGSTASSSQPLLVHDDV
Test: Kit wild type assay at Km (Caliper electrophoretic mobility shift)
Format: biochemical
Details: wild type Kit 2 nM, 400 uM ATP (Km), 1 uM Srctide, 25 C, 90 minutes; read-out: INH-KITWT ENZ-KM IC50 (nM) (Num)

COc1cc2ncnc(N3CCN(c4ncc(Cc5ccccc5)cn4)CC3)c2cc1OCC1CCN(CCO)CC1 [Compound 139] | 11 to 100 nM
COc1ccc(COc2cnc(N3CCN(c4ncnc5cc(OC)c(OC)cc45)CC3)nc2)cc1 [Compound 77] | > 1000 nM
COc1cc2ncnc(N3CCN(c4ncc(Oc5ccc(F)cc5)cn4)CC3)c2cc1OCC1CCN(C)CC1 [Compound 133] | 11 to 100 nM

compound COc1cc2ncnc(N3CCN(c4ncc(-c5ccccc5)cn4)CC3)c2cc1OC [Compound 9] , IC50 observed: > 1000 nM
